Just for reference, the RNAGym collection of RNA variant scans (doi:10.1126/science.aae0568) is where these values come from.

B1: tRNA (parent)
chain: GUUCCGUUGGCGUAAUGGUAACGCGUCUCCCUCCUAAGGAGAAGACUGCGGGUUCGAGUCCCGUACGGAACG

- Variants of: B1
- ASSAY_PROCEDURE: yeast fitness relative to wild type (ratio to wild type); higher = fitter; tRNA-Arg(CCU), competitive growth, 37 C, YPD
This sample holds only a part of the variants without activity.
# cutoff 0.7 applies to yeast fitness; >= gives 1 (yes), < gives 0 (no)

MUTATION_ANNOTATION: G9C A14C A15U G23A C34A G52C
ASSIGNED_CATEGORY: 0 (no)
//
MUTATION_ANNOTATION: C11G C55G A57C
ASSIGNED_CATEGORY: 0 (no)
//
MUTATION_ANNOTATION: C4U C34G U35A A42U
ASSIGNED_CATEGORY: 0 (no)
//
MUTATION_ANNOTATION: C27A U32A U59C
ASSIGNED_CATEGORY: 0 (no)
//
MUTATION_ANNOTATION: C4U C22A A40C C55G A57C A69U
ASSIGNED_CATEGORY: 0 (no)
//
MUTATION_ANNOTATION: G9A C11G U19C A20G G56A C60G
ASSIGNED_CATEGORY: 0 (no)
//
MUTATION_ANNOTATION: A20U C31U C66A
ASSIGNED_CATEGORY: 0 (no)
//
MUTATION_ANNOTATION: G9A C27U G41C
ASSIGNED_CATEGORY: 0 (no)
//
MUTATION_ANNOTATION: G9C G10C C66U
ASSIGNED_CATEGORY: 0 (no)
//
MUTATION_ANNOTATION: A14C A40C U47C A57C
ASSIGNED_CATEGORY: 0 (no)
//
MUTATION_ANNOTATION: C5U G18A A42C
ASSIGNED_CATEGORY: 0 (no)
//
MUTATION_ANNOTATION: G9A A21G
ASSIGNED_CATEGORY: 1 (yes)
//
MUTATION_ANNOTATION: G10A G17C C30G C33G C61A
ASSIGNED_CATEGORY: 0 (no)
//
MUTATION_ANNOTATION: C4G C34U C49A U54C A69U
ASSIGNED_CATEGORY: 0 (no)
//
MUTATION_ANNOTATION: C11G C60G G67C
ASSIGNED_CATEGORY: 0 (no)
//
MUTATION_ANNOTATION: U19C C33G C34U U54A C66U
ASSIGNED_CATEGORY: 0 (no)
//
MUTATION_ANNOTATION: C5U C34G C61U C66U
ASSIGNED_CATEGORY: 0 (no)
//
MUTATION_ANNOTATION: U13A U54C
ASSIGNED_CATEGORY: 1 (yes)
//
MUTATION_ANNOTATION: C5A U8G C27U A45G U53C
ASSIGNED_CATEGORY: 0 (no)
//
MUTATION_ANNOTATION: A14C A70G
ASSIGNED_CATEGORY: 1 (yes)
//
MUTATION_ANNOTATION: C29U G39C
ASSIGNED_CATEGORY: 0 (no)
//
MUTATION_ANNOTATION: A20U C33A C66A
ASSIGNED_CATEGORY: 0 (no)
//
MUTATION_ANNOTATION: C11G C24U C55G
ASSIGNED_CATEGORY: 0 (no)
//
MUTATION_ANNOTATION: C4U C27U U47C
ASSIGNED_CATEGORY: 1 (yes)
//
MUTATION_ANNOTATION: A14U C22G A57C G63C C66U
ASSIGNED_CATEGORY: 0 (no)
//
MUTATION_ANNOTATION: A42C U53A G68C
ASSIGNED_CATEGORY: 0 (no)
//
MUTATION_ANNOTATION: C4G C5G C29G
ASSIGNED_CATEGORY: 0 (no)
//
MUTATION_ANNOTATION: G6C C46G C62U C66U
ASSIGNED_CATEGORY: 0 (no)
//
MUTATION_ANNOTATION: C5U C31U G50A C55G
ASSIGNED_CATEGORY: 0 (no)
//
MUTATION_ANNOTATION: C11G A57U C66U
ASSIGNED_CATEGORY: 0 (no)
//
MUTATION_ANNOTATION: A20G A57G C62U A69G
ASSIGNED_CATEGORY: 1 (yes)
//
MUTATION_ANNOTATION: C5U C34A G38C A70C
ASSIGNED_CATEGORY: 0 (no)
//
MUTATION_ANNOTATION: A15U C30U
ASSIGNED_CATEGORY: 1 (yes)
//
MUTATION_ANNOTATION: U19G G41C C66U
ASSIGNED_CATEGORY: 0 (no)
//
MUTATION_ANNOTATION: C60G C66G A70C
ASSIGNED_CATEGORY: 0 (no)
